Target: recombinant human MAO-B (Homo sapiens, UniProt P27338)
Sequence (P27338 1-520): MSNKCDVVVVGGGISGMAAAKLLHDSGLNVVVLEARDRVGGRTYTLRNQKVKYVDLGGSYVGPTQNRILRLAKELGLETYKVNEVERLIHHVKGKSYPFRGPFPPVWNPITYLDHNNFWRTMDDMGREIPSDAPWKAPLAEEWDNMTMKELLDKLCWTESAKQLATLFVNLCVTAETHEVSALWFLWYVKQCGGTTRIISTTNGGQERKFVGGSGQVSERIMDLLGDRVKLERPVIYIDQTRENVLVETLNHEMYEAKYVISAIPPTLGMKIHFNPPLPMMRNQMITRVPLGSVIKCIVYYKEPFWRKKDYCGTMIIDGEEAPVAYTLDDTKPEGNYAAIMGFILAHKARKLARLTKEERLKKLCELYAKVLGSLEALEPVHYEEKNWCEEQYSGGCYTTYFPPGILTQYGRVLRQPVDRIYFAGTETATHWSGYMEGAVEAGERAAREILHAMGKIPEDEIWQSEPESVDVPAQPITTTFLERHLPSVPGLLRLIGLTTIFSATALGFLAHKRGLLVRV
Test: biochemical
Type: biochemical
measure-name: pIC50
Scale for pIC50: -log10 of concentration given in mol/L; no unit attached.

Given CC(C)=CCOc1c2occc2cc2ccc(=O)oc12 , report its pIC50 on recombinant human MAO-B (Homo sapiens, UniProt P27338).
4.60

---
Given COc1c2ccoc2cc2oc(=O)ccc12 , report its pIC50 on recombinant human MAO-B (Homo sapiens, UniProt P27338).
5.05

###

Biological target: recombinant human MAO-B (Homo sapiens, UniProt P27338)
Test: biochemical
Assay type: biochemical
Settings: read-out: MAO-B IC50; recombinant human MAO-B; kynuramine substrate; mean ± SD of triplicate; na = not active at 100μM
IC50 values by entry
Please give a number only; it is taken to be in µM.

Give the measured IC50 for COc1cc(O)ccc1O[C@@H]1O[C@H](COC(=O)c2cc(OC)c(O)c(OC)c2)[C@@H](O)[C@H](O)[C@H]1O
85.7

Now consider a different compound.
Give the measured IC50 for CC(C)(O[C@@H]1O[C@H](CO)[C@@H](O)[C@H](O)[C@H]1O)[C@H]1Cc2cc3ccc(=O)oc3c(O)c2O1
75.5

###

Target: recombinant human MAO-A (Homo sapiens)
Assay: Kynuramine oxidative deamination assay, MAO-A inhibition
Format: biochemical
measure-name: pIC50
Scale for pIC50: -log10 of concentration given in mol/L; no unit attached.

Given CC(C)=CCOc1c2occc2cc2ccc(=O)oc12 [Compound 7, imperatorin] , report its pIC50 on recombinant human MAO-A (Homo sapiens).
4.52

Given CC(C)=CCOc1c2ccoc2cc2oc(=O)ccc12 [Compound 2, isoimperatorin] , report its pIC50 on recombinant human MAO-A (Homo sapiens).
5.16

Now consider a different compound.
Given COc1c2ccoc2cc2oc(=O)ccc12 [Compound 4, bergapten] , report its pIC50 on recombinant human MAO-A (Homo sapiens).
5.35

###

Target: recombinant human MAO-A (Homo sapiens, UniProt P21397)
Sequence (P21397 whole entry): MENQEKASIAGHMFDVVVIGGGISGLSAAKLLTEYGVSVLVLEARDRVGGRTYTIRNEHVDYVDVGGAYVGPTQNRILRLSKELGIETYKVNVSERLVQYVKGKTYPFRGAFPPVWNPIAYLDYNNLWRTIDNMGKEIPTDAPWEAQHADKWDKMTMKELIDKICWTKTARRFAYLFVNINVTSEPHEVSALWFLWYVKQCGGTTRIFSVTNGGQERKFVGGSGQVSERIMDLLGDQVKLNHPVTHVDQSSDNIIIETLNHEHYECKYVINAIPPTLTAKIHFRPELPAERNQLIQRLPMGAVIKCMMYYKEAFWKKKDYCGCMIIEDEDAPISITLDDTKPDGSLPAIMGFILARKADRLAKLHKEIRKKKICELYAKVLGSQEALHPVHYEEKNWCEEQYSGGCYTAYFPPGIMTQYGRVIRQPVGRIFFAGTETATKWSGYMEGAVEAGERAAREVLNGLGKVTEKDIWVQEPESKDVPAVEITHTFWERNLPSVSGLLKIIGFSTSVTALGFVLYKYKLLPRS
Assay: Kynuramine oxidative deamination assay, MAO-A inhibition
Format: biochemical
Conditions: read-out: MAO-A IC50; recombinant human MAO-A; kynuramine substrate; mean ± SD of triplicate; na = not active at 100μM
measure-name: pIC50
Scale for pIC50: -log10 of concentration given in mol/L; no unit attached.

Given CC(C)(O[C@@H]1O[C@H](CO)[C@@H](O)[C@H](O)[C@H]1O)[C@H]1Cc2cc3ccc(=O)oc3c(O)c2O1 , report its pIC50 on recombinant human MAO-A (Homo sapiens, UniProt P21397).
4.48
